# tested_system: glutathione-S-transferase (GST) tagged LXRbeta LBD (ligand binding domain) (Homo sapiens)
# Construct: purchased Invitrogen pv4658.pps
# Sequence (P55055 222-460 limits assumed): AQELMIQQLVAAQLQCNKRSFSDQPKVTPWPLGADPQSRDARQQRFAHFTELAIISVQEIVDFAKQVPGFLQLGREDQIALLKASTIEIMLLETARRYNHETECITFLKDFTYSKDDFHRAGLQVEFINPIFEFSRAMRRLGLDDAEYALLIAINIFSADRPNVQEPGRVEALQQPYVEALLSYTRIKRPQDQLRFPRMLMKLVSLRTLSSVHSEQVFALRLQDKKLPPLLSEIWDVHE
# assay_name: LanthaScreen TR-FRET Liver X Receptor Coactivator Assay, LXR beta-LBD
# Assay type: biochemical
# run_conditions: efficacy in relation to reference dual agonist T1317; read-out: LXR beta activity at max dose (%) (Emax)
Binary call on Emax with cut-off 80%: strictly below means yes (1), and equality or higher means no (0).

Sample answers from the record:
{"columns": ["compound", "category"],
 "data": [
  ["CN(C)C(=O)c1ccc(-c2cnc(N3CCN(C(=O)C(O)(C4CCCCC4)C(F)(F)F)CC3)c(C#N)c2)cc1Cl (centres unmarked)", "no (0)"],
  ["CN(C)C(=O)c1ccc(-c2cnc(N3CCN(C(=O)OC(C)(C)C)C(c4ccccc4)C3)c(C#N)c2)cc1Cl (centres unmarked)", "yes (1)"],
  ["CN(C)C(=O)c1ccc(-c2cnc(N3CCN(C(=O)[C@@](C)(O)C(F)(F)F)CC3)c(C#N)c2)cc1Cl", "no (0)"],
  ["CN(C)C(=O)c1ccc(-c2cnc(N3CCN(C(=O)Cc4ccccc4)CC3)c(C#N)c2)cc1Cl", "no (0)"],
  ["CN(CC(O)c1ccc(O)cc1)C(=O)c1ccc(-c2cnc(N3CCN(C(=O)OC(C)(C)C)CC3)c(C#N)c2)cc1Cl (centres unmarked)", "yes (1)"]
]}

State whether 80% exceeds Emax recorded for CN(C)C(=O)c1ccc(-c2cnc(N3CCN(C(=O)OC(C)(C)C)CC3)c(C#N)c2)cc1C1CC1 .
yes (1)

Hello, I'm reviewing records and need to know if Emax of CN(C)C(=O)c1ccc(-c2cnc(N3CCN(S(=O)(=O)c4cccs4)CC3)c(C#N)c2)cc1Cl is below 80%. Could you check?
yes (1)

Problem: For the compound Cc1noc(C)c1CC(=O)N1CCN(c2ncc(-c3ccc(C(=O)N(C)C)c(Cl)c3)cc2C#N)CC1 , is Emax under 80%?
yes (1)

Lab log: compare recorded Emax with 80%; is it strictly lower for CN(C)C(=O)c1ccc(-c2ccc(N3CCN(C(=O)c4c(F)cccc4Cl)CC3)cc2)cc1Cl ?
no (0)

Check if Emax falls below 80% for CN(C)C(=O)c1ccc(-c2ccc(N3CCN(C(=O)c4c(F)cccc4F)CC3)c(Cl)c2)cc1Cl .
no (0)

API: query returns whether the compound falls strictly under 80% in Emax. Query: CC(C)(C)OC(=O)N1CCN(c2ncc(-c3ccc(C(=O)N4CCC(O)CC4)c(Cl)c3)cc2C#N)CC1
yes (1)

Could you please tell me whether Emax recorded for Cc1ccccc1COC(=O)N1CCN(c2ncc(-c3ccc(C(=O)N(C)C)c(Cl)c3)cc2C#N)CC1 is less than 80%?
no (0)

* * *

# tested_system: glutathione-S-transferase (GST) tagged LXRbeta LBD (ligand binding domain) (Homo sapiens, UniProt P55055)
# Construct: purchased Invitrogen pv4658.pps
# Sequence (P55055 222-460 limits assumed): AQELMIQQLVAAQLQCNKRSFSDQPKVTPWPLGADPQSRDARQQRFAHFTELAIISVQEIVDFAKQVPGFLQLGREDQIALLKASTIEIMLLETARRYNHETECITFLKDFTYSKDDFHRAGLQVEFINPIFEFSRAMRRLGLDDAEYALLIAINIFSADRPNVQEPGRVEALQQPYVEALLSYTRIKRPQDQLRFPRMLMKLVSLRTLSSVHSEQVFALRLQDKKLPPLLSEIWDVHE
# assay_name: LanthaScreen TR-FRET Liver X Receptor Coactivator Assay, LXR beta-LBD
# Format: biochemical
# run_conditions: efficacy in relation to reference dual agonist T1317; read-out: LXR beta activity at max dose (%) (Emax)
parameter_measured: Emax

Sample records with Emax:
{"columns": ["compound", "parameter_measured", "value_observed"],
 "data": [
  ["CN(C)C(=O)c1ccc(-c2cnc(N3CCN(C(=O)C4(c5ccccc5)CC4)CC3)c(C#N)c2)cc1Cl [Example 2-17]", "Emax", "95%"],
  ["CON(C)C(=O)c1ccc(-c2cnc(N3CCN(C(=O)OC(C)(C)C)CC3)c(C#N)c2)cc1Cl [Example 5-7]", "Emax", "69%"]
]}

Sample CCN(C)C(=O)c1ccc(-c2cnc(N3CCN(C(=O)OC(C)(C)C)CC3)c(C#N)c2)cc1Cl [Example 5-5] — what was its Emax?
76%

Looking for the measured Emax of CN(CCO)C(=O)c1ccc(-c2cnc(N3CCN(C(=O)OC(C)(C)C)CC3)c(C#N)c2)cc1Cl [Example 5-1] , can you help?
80%

* * *

# tested_system: glutathione-S-transferase (GST) tagged LXRbeta LBD (ligand binding domain) (Homo sapiens)
# assay_name: LanthaScreen TR-FRET Liver X Receptor Coactivator Assay, LXR beta-LBD
# run_conditions: potency (Inflection Point) of co-activator recruitment, TR-FRET; read-out: LXR beta IP
Recorded EC50 for the following compounds
Only the number, expressed in nM, is required.

{"columns": ["compound", "tested_system", "EC50 / nM"],
 "data": [
  ["CN(CC(O)c1ccccc1)C(=O)c1ccc(-c2cnc(N3CCN(C(=O)OC(C)(C)C)CC3)c(C#N)c2)cc1Cl (stereo not shown)", "glutathione-S-transferase (GST) tagged LXRbeta LBD (ligand binding domain) (Homo sapiens)", 1170],
  ["CN(Cc1cnn(C)c1)C(=O)c1ccc(-c2cnc(N3CCN(C(=O)OC(C)(C)C)CC3)c(C#N)c2)cc1Cl", "glutathione-S-transferase (GST) tagged LXRbeta LBD (ligand binding domain) (Homo sapiens)", 382],
  ["CN(C)C(=O)c1ccc(-c2cnc(N3CCN(S(=O)(=O)c4ccccc4Cl)CC3)c(C#N)c2)cc1Cl", "glutathione-S-transferase (GST) tagged LXRbeta LBD (ligand binding domain) (Homo sapiens)", 8],
  ["CNC(=O)c1ccc(-c2cnc(N3CCN(C(=O)[C@](O)(c4ccccc4)C(F)(F)F)CC3)c(C#N)c2)cc1Cl", "glutathione-S-transferase (GST) tagged LXRbeta LBD (ligand binding domain) (Homo sapiens)", 12],
  ["CN(C)C(=O)c1ccc(-c2cnc(N3CCN(C(=O)Cc4c[nH]c5ccccc45)CC3)c(C#N)c2)cc1Cl", "glutathione-S-transferase (GST) tagged LXRbeta LBD (ligand binding domain) (Homo sapiens)", 186],
  ["CN(C)C(=O)c1c(Cl)cc(-c2cnc(N3CC4CCC3CN4C(=O)OC(C)(C)C)c(C#N)c2)cc1Cl (stereo not shown)", "glutathione-S-transferase (GST) tagged LXRbeta LBD (ligand binding domain) (Homo sapiens)", 49]
]}

Kindly review the next compound as well.
Given the entry CC(C)C(O)(C(=O)N1CCN(c2ncc(-c3cc(Cl)c(C(=O)N(C)C)c(Cl)c3)cc2C#N)CC1)C(F)(F)F (single isomer, unassigned) [Example 7-5] , report its measured EC50.
12

* * *

# tested_system: glutathione-S-transferase (GST) tagged LXRbeta LBD (ligand binding domain) (Homo sapiens, UniProt P55055)
# Construct: purchased Invitrogen pv4658.pps
# assay_name: LanthaScreen TR-FRET Liver X Receptor Coactivator Assay, LXR beta-LBD
# Type: biochemical
# run_conditions: efficacy in relation to reference dual agonist T1317; read-out: LXR beta activity at max dose (%) (Emax)
parameter_measured: Emax
Phrase the answer as number then unit, nothing more needed.

// solved cases for Emax follow
{"columns": ["molecule", "parameter_measured", "value_observed"],
 "data": [
  ["CCC(C)(C)C(=O)N1CCN(c2ncc(-c3ccc(C(=O)N(C)C)c(Cl)c3)cc2C#N)CC1 [Example 2-5]", "Emax", "97%"],
  ["CCCC(O)(C(=O)N1CCN(c2ncc(-c3ccc(C(=O)N(C)C)c(Cl)c3)cc2C#N)CC1)C(F)(F)C(F)(F)F (centres unmarked) [Example 2-36]", "Emax", "81%"],
  ["CN(C)C(=O)c1c(Cl)cc(-c2cnc(N3CCN(C(=O)[C@](O)(c4ccccc4)C(F)(F)F)CC3)c(C#N)c2)cc1Cl [Example 7-1]", "Emax", "73%"],
  ["CN(C)C(=O)c1ccc(-c2cnc(N3CCN(C(=O)C(O)(CCc4ccccc4)C(F)(F)F)CC3)c(C#N)c2)cc1Cl (centres unmarked) [Example 2-37]", "Emax", "58%"],
  ["Cc1nc(CCN(C)C(=O)c2ccc(-c3cnc(N4CCN(C(=O)OC(C)(C)C)CC4)c(C#N)c3)cc2Cl)no1 [Example 5-28]", "Emax", "84%"],
  ["CN(CCn1cncn1)C(=O)c1ccc(-c2cnc(N3CCN(C(=O)[C@](O)(c4ccccc4)C(F)(F)F)CC3)c(C#N)c2)cc1Cl [Example 6-1]", "Emax", "101%"],
  ["CN(C)C(=O)c1ccc(-c2cnc(N3CCN(C(=O)OCc4ccccc4)CC3)c(C#N)c2)cc1Cl [Example 3-14]", "Emax", "74%"],
  ["CN(C)C(=O)c1ccc(-c2cnc(N3CCN(C(=O)C(C)(C)C)CC3)c(C#N)c2)cc1Cl [Example 2-3]", "Emax", "105%"]
]}

Alright, here's another molecule for you.
If you can, please state the reported Emax value of CN(C)C(=O)c1ccc(-c2cnc(N3CCN(C(=O)C4Cc5ccccc54)CC3)c(C#N)c2)cc1Cl (centres unmarked) [Example 2-13] .
108%
